Measured values drawn from patent US7759346B2 for this set.

Listing: % MPE (reversal of PGE2-induced thermal hypersensitivity) of selected molecules
test system: Spraque-Dawley rats; test: Prostaglandin E2-induced thermal hypersensitivity, warm-water tail withdrawal, single compound studies; format: in vivo, rat; settings: IP, 10 mg/kg, given 30 min before PGE2
recorded endpoint: % MPE (reversal of PGE2-induced thermal hypersensitivity)

>  <molecule>
CNC1(c2ccccc2Cl)CCCCC1=O (stereo not shown)

>  <test system>
Spraque-Dawley rats

>  <reported result>
14%

$$$$
>  <molecule>
O=C(O)[C@H]1C[C@@H](CP(=O)(O)O)CCN1 (relative stereo)

>  <test system>
Spraque-Dawley rats

>  <reported result>
25%

$$$$
>  <molecule>
CC12CC3CC(C)(C1)CC(N)(C3)C2 [memantine]

>  <test system>
Spraque-Dawley rats

>  <reported result>
15%

$$$$
>  <molecule>
CC(C(O)c1ccc(O)cc1)N1CCC(Cc2ccccc2)CC1 (stereo not shown)

>  <test system>
Spraque-Dawley rats

>  <reported result>
1%

$$$$
